target: HLA-DR DRB5*01:01 (Homo sapiens, UniProt P01903+Q30154); test: biochemical; type: binding; details: read-out: Binding capacity/IC50 (nM) DRB5*01:01
Quick reference: IC50 of the listed items.
The response must be a number in nM with no trailing unit.

Sample records with IC50:
COMPOUND	OBSERVED
CC[C@H](C)[C@H](NC(=O)[C@@H]1CCCN1C(=O)[C@H](CCC(=O)O)NC(=O)[C@@H](N)CCCCN)C(=O)N[C@H](C(=O)NCC(=O)N[C@@H](C)C(=O)N[C@@H](CCC(=O)O)C(=O)N[C@H](C(=O)N[C@@H](Cc1ccccc1)C(=O)N[C@@H](Cc1ccc(O)cc1)C(=O)N[C@H](C(=O)N[C@@H](CC(=O)O)C(=O)NCC(=O)N[C@@H](C)C(N)=O)C(C)C)[C@@H](C)O)C(C)C [RT(431-445)]	148
CC[C@H](C)[C@H](NC(=O)[C@@H](NC(=O)[C@H](CCCCN)NC(=O)[C@@H](NC(=O)[C@@H]1CCCN1C(=O)[C@H](Cc1c[nH]c2ccccc12)NC(=O)[C@H](CCCNC(=N)N)NC(=O)CNC(=O)[C@H](C)NC(=O)[C@H](CC(C)C)NC(=O)[C@H](CCCCN)NC(=O)[C@H](CC(C)C)NC(=O)[C@@H](NC(=O)[C@H](Cc1ccccc1)NC(=O)[C@H](Cc1ccc(O)cc1)NC(=O)[C@H](C)NC(=O)[C@@H](NC(=O)[C@@H](N)CCC(=O)O)[C@@H](C)O)[C@@H](C)CC)C(C)C)C(C)C)C(N)=O [integrase(96-113)]	4.4
CC[C@H](C)[C@H](NC(=O)CNC(=O)[C@H](CCCCN)NC(=O)[C@H](Cc1c[nH]cn1)NC(=O)[C@H](C)NC(=O)[C@@H]1CCCN1C(=O)[C@@H](NC(=O)[C@H](Cc1c[nH]c2ccccc12)NC(=O)[C@H](CO)NC(=O)[C@H](CC(C)C)NC(=O)[C@H](Cc1ccc(O)cc1)NC(=O)[C@@H](NC(=O)[C@H](CCCCN)NC(=O)[C@H](CCC(=O)O)NC(=O)[C@@H](N)CCCCN)C(C)C)C(C)C)C(=O)NCC(=O)NCC(=O)N[C@@H](CC(N)=O)C(=O)N[C@@H](CCC(=O)O)C(N)=O [RT(528-546)]	16

Next item in the queue.
Please give the measured IC50 for this compound: CC(C)C[C@H](NC(=O)[C@H](CCCCN)NC(=O)[C@@H](NC(=O)[C@H](CC(C)C)NC(=O)[C@@H]1CCCN1C(=O)[C@@H]1CCCN1C(=O)[C@@H](NC(=O)[C@H](CC(N)=O)NC(=O)[C@@H](NC(=O)[C@H](Cc1ccccc1)NC(=O)[C@H](CCC(=O)O)NC(=O)[C@H](Cc1c[nH]c2ccccc12)NC(=O)[C@@H](N)CCC(=O)O)C(C)C)[C@@H](C)O)C(C)C)C(=O)N[C@@H](Cc1c[nH]c2ccccc12)C(=O)N[C@@H](Cc1ccc(O)cc1)C(N)=O [RT(413-427)] 14

---

molecular target: HLA-DR DRB1*04:01 (Homo sapiens, UniProt P01903+P01911, A100K/A169T/F76Y/I96L/K127E/L162R/M171V/N62H/P40V/Q125Y/R42H/S133A/S149N/S66Y/V115G/V209L/W38E); assay: biochemical; type: binding; conditions: read-out: Binding capacity/IC50 (nM) DRB1*04:01
READOUT_NAME: IC50
A complete answer gives the number followed by the unit.

Please give the measured IC50 for this compound: `CC[C@H](C)[C@H](NC(=O)[C@H](Cc1ccc(O)cc1)NC(=O)CNC(=O)[C@H](CO)NC(=O)[C@H](C)NC(=O)[C@@H](NC(=O)[C@H](Cc1c[nH]cn1)NC(=O)[C@@H](NC(=O)[C@H](C)NC(=O)[C@@H](NC(=O)[C@H](CC(C)C)NC(=O)[C@@H](NC(=O)[C@@H](NC(=O)[C@H](CCCCN)NC(=O)CNC(=O)[C@@H](N)CCC(=O)O)[C@@H](C)CC)[C@@H](C)CC)C(C)C)C(C)C)C(C)C)C(=O)N[C@@H](CCC(=O)O)C(N)=O` 7.6 nM

---

biological target: HLA-DP DPA1*03:01/DPB1*04:02 (Homo sapiens, UniProt P04440+P20036, A42M/A65V/A84D/A85E/L207M/L97S); assay: biochemical
Ends that are not written are not given here.
READOUT_NAME: log10(IC50) (log10 of the value in nM)
Heads up: the numbers are on a log10 scale; they represent IC50 in nM.

Sample records with log10(IC50):
SUBSTANCE	OBSERVED
IRYPLTFGWCFKLVPVDPREVEEA-NH2 [nef(133-156)]	2.83
LNKIVRMYSPVSILDI-NH2 [p24(138-153)]	0.00
DEELLKAVRIIKILYQSNP-NH2 [rev(9-27)]	0.76
NYPIVQNLQGQMVHQAISPR-NH2 [p17(131-132)/p24(1-18)]	2.68
IVALIIAIVVWTIV-NH2 [vpu(13-26)]	3.11

Please give the measured log10(IC50) for this substance: EAVRHFPRPWLHGL-NH2 [vpr(29-42)] 2.14

Request: VVIQDNSDIKVVPRRKAKII-NH2 [integrase(249-268)] 3.56

Request: VGSLQYLALTALITPKK-NH2 [vif(142-158)] 0.18

Request: YAKMRSAHTNDVKQL-NH2 [RT(354-368)] 3.84

Request: SEELRSLYNTVATLYCVHQ-NH2 [p17(72-90)] 1.92

---

Biological target: HLA-DP DPA1*01:03/DPB1*04:01 (Homo sapiens, UniProt P04440+P20036)
Sequence (P20036 29-260): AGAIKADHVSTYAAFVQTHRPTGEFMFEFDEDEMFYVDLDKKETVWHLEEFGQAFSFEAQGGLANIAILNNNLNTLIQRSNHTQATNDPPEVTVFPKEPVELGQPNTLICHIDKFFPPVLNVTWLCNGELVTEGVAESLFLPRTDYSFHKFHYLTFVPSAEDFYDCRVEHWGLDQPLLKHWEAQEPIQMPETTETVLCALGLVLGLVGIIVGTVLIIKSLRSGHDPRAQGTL
Sequence (P04440 30-258): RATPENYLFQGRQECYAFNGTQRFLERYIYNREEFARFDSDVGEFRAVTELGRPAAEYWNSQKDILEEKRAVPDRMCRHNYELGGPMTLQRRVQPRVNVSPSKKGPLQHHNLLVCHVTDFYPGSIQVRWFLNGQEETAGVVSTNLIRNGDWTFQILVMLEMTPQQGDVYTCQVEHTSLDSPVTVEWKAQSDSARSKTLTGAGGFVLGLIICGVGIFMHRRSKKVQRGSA
Test: biochemical
Format: binding
Details: read-out: Binding capacity/IC50 (nM) DPA1*01:03 DPB1*04:01
Quick reference: IC50 of the listed items.
The response must be a number in nM with no trailing unit.

Sample records with IC50:
CC(C)C[C@H](NC(=O)[C@H](CCCCN)NC(=O)[C@@H](NC(=O)[C@H](CC(C)C)NC(=O)[C@@H]1CCCN1C(=O)[C@@H]1CCCN1C(=O)[C@@H](NC(=O)[C@H](CC(N)=O)NC(=O)[C@@H](NC(=O)[C@H](Cc1ccccc1)NC(=O)[C@H](CCC(=O)O)NC(=O)[C@H](Cc1c[nH]c2ccccc12)NC(=O)[C@@H](N)CCC(=O)O)C(C)C)[C@@H](C)O)C(C)C)C(=O)N[C@@H](Cc1c[nH]c2ccccc12)C(=O)N[C@@H](Cc1ccc(O)cc1)C(N)=O 846
CC[C@H](C)[C@H](NC(=O)CNC(=O)[C@H](CCCCN)NC(=O)[C@H](Cc1c[nH]cn1)NC(=O)[C@H](C)NC(=O)[C@@H]1CCCN1C(=O)[C@@H](NC(=O)[C@H](Cc1c[nH]c2ccccc12)NC(=O)[C@H](CO)NC(=O)[C@H](CC(C)C)NC(=O)[C@H](Cc1ccc(O)cc1)NC(=O)[C@@H](NC(=O)[C@H](CCCCN)NC(=O)[C@H](CCC(=O)O)NC(=O)[C@@H](N)CCCCN)C(C)C)C(C)C)C(=O)NCC(=O)NCC(=O)N[C@@H](CC(N)=O)C(=O)N[C@@H](CCC(=O)O)C(N)=O 1390
CC[C@H](C)[C@H](NC(=O)[C@@H](NC(=O)[C@H](CCCCN)NC(=O)[C@@H](NC(=O)[C@@H]1CCCN1C(=O)[C@H](Cc1c[nH]c2ccccc12)NC(=O)[C@H](CCCNC(=N)N)NC(=O)CNC(=O)[C@H](C)NC(=O)[C@H](CC(C)C)NC(=O)[C@H](CCCCN)NC(=O)[C@H](CC(C)C)NC(=O)[C@@H](NC(=O)[C@H](Cc1ccccc1)NC(=O)[C@H](Cc1ccc(O)cc1)NC(=O)[C@H](C)NC(=O)[C@@H](NC(=O)[C@@H](N)CCC(=O)O)[C@@H](C)O)[C@@H](C)CC)C(C)C)C(C)C)C(N)=O 232

Please give the measured IC50 for this compound: `CC[C@H](C)[C@H](NC(=O)[C@H](Cc1ccc(O)cc1)NC(=O)CNC(=O)[C@H](CO)NC(=O)[C@H](C)NC(=O)[C@@H](NC(=O)[C@H](Cc1c[nH]cn1)NC(=O)[C@@H](NC(=O)[C@H](C)NC(=O)[C@@H](NC(=O)[C@H](CC(C)C)NC(=O)[C@@H](NC(=O)[C@@H](NC(=O)[C@H](CCCCN)NC(=O)CNC(=O)[C@@H](N)CCC(=O)O)[C@@H](C)CC)[C@@H](C)CC)C(C)C)C(C)C)C(C)C)C(=O)N[C@@H](CCC(=O)O)C(N)=O` 2830
